Attribution: paper PMC2790607

- assay-target: Rpf Sm (Micrococcus luteus, UniProt O86308)
- Construct: His-tag (inferred from the pET19b vector and the Ni2+-chelation purification); made in house; host or cells: E. coli HSM174 (DE3)
- Sequence (O86308 42-134): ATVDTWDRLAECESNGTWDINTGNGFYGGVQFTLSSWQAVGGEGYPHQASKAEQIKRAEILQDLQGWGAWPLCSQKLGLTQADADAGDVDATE
- assay-method-text: Muralytic activity of Rpf, 4-MUF-3-NAG hydrolysis
- Assay type: biochemical, M. luteus
assay-endpoint: IC50 (µM)
Number only, in µM; omit the unit.

Query: // lookup IC50 for COC(=O)c1ccc(SC#N)c([N+](=O)[O-])c1
Result: 23.5

Query: Next: N#CSc1ccc(C#N)cc1[N+](=O)[O-]
Result: 25.3

Query: Next: CC(=O)c1ccc(SC#N)c([N+](=O)[O-])c1 [VI, 4-Acetyl-2-nitrophenyl thiocyanate]
Result: 9.9

Query: Next: N#CSc1ccc(C(=O)c2ccccc2)cc1[N+](=O)[O-] [VII, 4-Benzoyl-2-nitrophenyl thiocyanate]
Result: 6.68

###

- Test system: M. tuberculosis "non-culturable" cells
- Format: cell-based, Mycobacterium tuberculosis
- condition-label: inhibitor 10 µg/ml, time 30 days
Tick criterion met if MPN, logarithmic transformation of cell concentration (cells/ml) is 5 or greater. Tick criterion not met if MPN, logarithmic transformation of cell concentration (cells/ml) is less than 5.

Query: Textbook exercise: given the entry N#CSc1ccc(C(F)(F)F)cc1[N+](=O)[O-] [IV] , state whether its MPN, logarithmic transformation of cell concentration (cells/ml) is greater than or equal to 5.
Result: criterion met

Query: Next: COC(=O)c1ccc(SC#N)c([N+](=O)[O-])c1 [IX]
Result: criterion met

Query: Next: N#CSc1ccc(C#N)cc1[N+](=O)[O-] [V, 3-Nitro-4-thiocyanobenzonitryl]
Result: criterion not met

Query: Next: N#CSc1cc(SC#N)c([N+](=O)[O-])cc1[N+](=O)[O-] [III, 1,5-Dinitro-2,4-dithiocyanatobenzene]
Result: criterion met

Query: Next: CC(=O)c1ccc(SC#N)c([N+](=O)[O-])c1 [VI, 4-Acetyl-2-nitrophenyl thiocyanate]
Result: criterion not met

Query: Next: N#CSc1ccc(C(=O)c2ccccc2)cc1[N+](=O)[O-] [VII, 4-Benzoyl-2-nitrophenyl thiocyanate]
Result: criterion met
